Listing: TGI of selected molecules
System: HOP-62 NSCLC
experimentalDetails: NCI tumour cell line growth inhibition, 48 h
Where a SMILES comes first, the peptide text is derived from it. [ ]: non-standard residue; d: D form. The star is where a group is joined. ξ: configuration not given here. Phe(4-NO2) = N[CH](Cc1ccc([N+](=O)[O-])cc1)C(=O)O; ξF = NC(Cc1ccccc1)C(=O)O; Cbz = O=C(OCc1ccccc1)*; Boc = CC(C)(C)OC(=O)*; Aib = CC(C)(N)C(=O)O; OBn = c1ccc(CO*)cc1
observedProperty: TGI

molecule | system | observedProperty | measured
COc1ccc2c(c1)O[C@@H]1C(O)Oc3cc(OC)c(OC)cc3[C@]1(O)C2=O (stereo not given in full) | HOP-62 NSCLC | TGI | > 100 µM
Brc1ccc(N=NN2CCCCC2)cc1 | HOP-62 NSCLC | TGI | > 100 µM
O=C(CN1CCN(c2ncccn2)CC1)Nc1ccc(Cl)cc1C(=O)c1ccccc1Cl | HOP-62 NSCLC | TGI | 57.5 µM
Cc1ccc(OCC(=O)N2N=C(c3ccccc3)CC2(O)c2ccccc2)cc1 (stereo not given) | HOP-62 NSCLC | TGI | 46 µM
CCOC(=O)/C(O)=C1\C(=O)N(C)C(=O)C1c1ccc(OC)c(OC)c1 (stereo not given) | HOP-62 NSCLC | TGI | > 100 µM
O=C(c1ccccc1)C(C(=O)c1ccccc1)C1(O)C(=O)c2ccccc2C1=O | HOP-62 NSCLC | TGI | > 100 µM
COc1cc(CCc2ccc(OCCN(C)C)cc2)cc(OC)c1OC | HOP-62 NSCLC | TGI | > 100 µM
CC1(C)OC2OC(COC(=O)C=[N+]=[N-])C3OC(C)(C)OC3C2O1 (stereo not given) | HOP-62 NSCLC | TGI | > 100 µM
CCc1cccc(C(C)C)c1NC(=O)C(=O)C(Cc1nc2ccccc2[nH]c1=O)C(=O)OC (stereo not given) | HOP-62 NSCLC | TGI | > 100 µM
CCOC/N=C(/N)NC#N | HOP-62 NSCLC | TGI | > 100 µM
COc1ccc2c(c1)OC(c1cccnc1)C(c1ccccc1)C2=O (stereo not given) | HOP-62 NSCLC | TGI | > 100 µM
COc1ccc2nc(N/N=C(\C)c3ccccn3)cc(C)c2c1 | HOP-62 NSCLC | TGI | 1.11 µM
COC(=O)CCC(NC(=O)OC(C)(C)C)C(=O)NC(Cc1ccc([N+](=O)[O-])cc1)C(=O)NCC(=O)OCc1ccccc1 (stereo not given) (Boc-Glu(OMe)-[Phe(4-NO2)]-Gly-OBn; configuration not given here) | HOP-62 NSCLC | TGI | > 77.6 µM
CCC(CCCN)Nc1cc(OC)cc2cccnc12 (stereo not given) | HOP-62 NSCLC | TGI | > 100 µM
N#Cc1c(-c2nc3ccccc3s2)c(=O)oc2cc(O)ccc12 | HOP-62 NSCLC | TGI | 57.3 µM
COc1cc(OC)c([C@@H]2OC(=O)C3C2C(=O)O[C@H]3c2cc(OC)c(OC)cc2OC)cc1OC (stereo not given in full) | HOP-62 NSCLC | TGI | > 100 µM
CC(C)(NC(=O)OCc1ccccc1)C(=O)NC(Cc1ccccc1)C(=O)O (stereo not given) (Cbz-[Aib]-[ξF]-OH) | HOP-62 NSCLC | TGI | > 100 µM
CNC(=O)c1cc(OC2CCC(NC(=O)Nc3ccc(Cl)c(C(F)(F)F)c3)CC2)ccn1 (stereo not given) | HOP-62 NSCLC | TGI | 31.4 µM
Oc1ccc(/C=C\c2nnc(/C=C\c3ccc(O)c(O)c3)s2)cc1O | HOP-62 NSCLC | TGI | 21.8 µM
COc1ccc2c3c1OC1CC(O)C=CC31CCN(C)C2 (stereo not given) | HOP-62 NSCLC | TGI | > 150 µM
C=C1CC2(OC1=O)C(=O)N(CCCCCCCN1C(=O)C3(CC(=C)C(=O)O3)c3ccccc31)c1ccccc12 (stereo not given) | HOP-62 NSCLC | TGI | 15.4 µM
O=C(O)CSc1n[nH]c(-c2ccc(O)cc2)n1 | HOP-62 NSCLC | TGI | > 100 µM
Cc1c(-c2c(C)c3ccccc3n2S(=O)(=O)c2ccccc2)n(S(=O)(=O)c2ccccc2)c2ccccc12 | HOP-62 NSCLC | TGI | > 87.3 µM
CC1OC(OCC2OC(Oc3c(-c4ccc(O)cc4)oc4cc(O)cc(O)c4c3=O)C(OC3OCC(O)(CO)C3O)C(O)C2O)C(O)C(O)C1O (stereo not given) | HOP-62 NSCLC | TGI | > 100 µM
O=C(CNc1nncs1)NO | HOP-62 NSCLC | TGI | > 100 µM
CC(=O)NNc1nc(C)c(C(/C=C/c2ccc3c(c2)OCO3)=N/Nc2ccccc2)s1 | HOP-62 NSCLC | TGI | > 100 µM
Cc1cc(C)nc(NS(=O)(=O)c2ccc(Nc3c4ccccc4nc4c(C(=O)Nc5ccc(S(=O)(=O)N=C(N)N)cc5)ccc(Cl)c34)cc2)n1 | HOP-62 NSCLC | TGI | 54.8 µM
COc1ccc2[nH]c(C(=O)N3CC(CCl)c4ccc(N)cc43)cc2c1 (stereo not given) | HOP-62 NSCLC | TGI | > 100 µM
C=C1C(=O)O[C@H]2[C@H]1CC/C(COC(=O)c1cc3cc(F)ccc3[nH]1)=C\CC[C@@]1(C)O[C@@H]21 | HOP-62 NSCLC | TGI | 14.9 µM
CC(=O)c1ccc(N=Nc2ccc3nonc3c2N)cc1 | HOP-62 NSCLC | TGI | > 100 µM
CCN(CC)CCOc1nc2ccc(OC)cc2c2c1-c1ccc(OC)cc1C2=O | HOP-62 NSCLC | TGI | 6.19 µM
COc1ccc2c(c1)[nH]c(=O)c1c3cc(C)c(C)cc3cn21 | HOP-62 NSCLC | TGI | 1.9 µM
N#CC1=C2Sc3ccccc3N2[C@H](c2ccccc2)[C@H]2COC(=O)[C@@H]12 | HOP-62 NSCLC | TGI | > 100 µM
CC1=C(C(=O)Nc2c(C)cccc2C)C(c2ccc3c(c2)OCO3)C(C(=O)Nc2c(C)cccc2C)=C(C)N1 | HOP-62 NSCLC | TGI | 44 µM
CCOc1cc2ncc(C#N)c(Nc3ccc(OCc4cccc(F)c4)c(Cl)c3)c2cc1NC(=O)CC1CCSS1 (stereo not given) | HOP-62 NSCLC | TGI | > 15.1 µM
